Property: inhibition; scope: individual molecules
- MEASUREMENT_DESCRIPTION: inhibitors of Chlamydomonas gravitaxis, primary screen, whole organism, Chlamydomonas reinhardtii, WT vs cilia-less mutant, absorbance, 96-well (AID 463189);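 note: 0% = wild type cc124 cells in DMSO and 100% = ciliumless bld1 mutant cells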
- MEASUREMENT_CONTEXT: OD600 absorbance, 2 days, at 10 µM, stronger effect = higher value
All answers are understood in %, so give the number only.

# annotated cases, reported inhibition shown
Cc1cccn2c(=O)c3cc(C(=O)NCc4cccnc4)c(=N)n(C)c3nc12    2.07
COc1ccc(C2C(C#N)=C(N)Oc3cc(C)n(CCN4CCOCC4)c(=O)c32)cc1OC (centres undefined)    1.58
CCN(CC)CCN1C(=O)C(=O)/C(=C(/O)c2c(C)[nH]c(C(=O)OC)c2C)C1c1ccccc1 (centres undefined)    13.3

Turning to the following molecule.
Fill in: inhibition of COc1cc(S(=O)(=O)N2CCN(C)CC2)c(OC)cc1Br is ___
21

---

- MEASUREMENT_DESCRIPTION: inhibitors of E-selectin induction by TNFa, primary screen, imaging, HUVEC, immunofluorescence, MLSMR starter and 10KST1 sets (AID 487);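 note: signal is fraction of cell area covered by stained E-selectin grains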
- MEASUREMENT_CONTEXT: HUVEC TNFalpha-induced E-selectin immunofluorescence imaging, at 2 µM; stronger effect = higher value
Param threshold (-20%) applies to inhibition; output 1 (yes) when value >= threshold, 0 (no) when value < threshold.

As a guide, the following entries are already answered.
Cc1oc2c(CN3CCOCC3)c(O)ccc2c(=O)c1-c1ccc(Br)cc1    1 (yes)
Cc1ccc(-c2nn(C)c(=O)c3ccccc23)cc1S(=O)(=O)NCCN1CCOCC1    0 (no)

Has CCCC1Cc2c(sc3nc(SC)nc(N)c23)CO1 (stereo not given) a recorded inhibition greater than or equal to -20%?
1 (yes)

Has O=S(=O)(Nc1ccn(-c2ccccc2)n1)c1ccc(Br)cc1 a recorded inhibition greater than or equal to -20%?
0 (no)

Has Cc1ccc(OCC(O)CNS(=O)(=O)c2ccccc2C(=O)O)cc1 (stereo not given) a recorded inhibition greater than or equal to -20%?
1 (yes)

---

Property: inhibition; scope: individual compounds
- MEASUREMENT_DESCRIPTION: inhibitors of E-selectin induction by TNFa, primary screen, imaging, HUVEC, immunofluorescence, MLSMR starter and 10KST1 sets (AID 487);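 note: signal is fraction of cell area covered by stained E-selectin grains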
- MEASUREMENT_CONTEXT: HUVEC TNFalpha-induced E-selectin immunofluorescence imaging, at 2 µM; stronger effect = higher value
Activity calls are given as the source filed them.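 Rule for the calls: active = visually confirmed hit in the image check and inhibition above 20%; inconclusive = visually confirmed hit but inhibition not above 20%; inactive = no visual hit in the image check.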

# annotated cases, reported inhibition shown
COc1ccc(/C(O)=C2/C(=O)C(=O)N(c3nc(C)c(C)s3)C2c2ccco2)cc1 (stereo not drawn)    -52.8% (inactive)
CC1(C)Cc2c(C#N)c(SCCOc3ccccc3)nc(N3CCOCC3)c2CO1    -56.3% (inactive)

Turning to the following compound.
Fill in: inhibition of COCC(=O)N(Cc1cc2cc(OC)ccc2[nH]c1=O)c1ccccc1 is ___
-47.1% (inactive)

---

- MEASUREMENT_DESCRIPTION: inhibitors of TNFa-induced NFkB p65 translocation, primary screen, imaging, HUVEC, MLSMR starter and 10KST1 sets (AID 438);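 note: compound added about 3h40 before a 20 min TNFalpha stimulation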
- MEASUREMENT_CONTEXT: HUVEC TNFa-induced p65 nuclear translocation; measured here: nuclei count (cytotoxicity indicator), at 2.08 µM
Property: cell count; scope: individual compounds

O=C1CC(c2ccco2)CC(O)=C1C=NCCN1CCN(C2CC(=O)N(c3ccccc3)C2=O)CC1 (centres undefined)    378

Fill in: cell count of Cc1ccc(NC2=NCC(=O)N2c2ccc3c(c2)OCCO3)c(C)c1 is ___
463

Fill in: cell count of CN1CCc2c(C#N)c(N3CCCCC3)nc(N3CCOCC3)c2C1 is ___
534

Fill in: cell count of Cc1ccccc1NC(=O)CN1CCC(NC(=O)Nc2ccccc2)CC1 is ___
516

Fill in: cell count of O=C(CNC1CCCCCC1)Nc1ccc(S(=O)(=O)NC2CC2)cc1 is ___
727

All figures here come from PubChem BioAssay.
